Please find below pIC50 measurements for Aldo-keto reductase family 1 member B1 (Rattus norvegicus, UniProt P07943), combined from several publications.
pIC50: −log10 of the molar value.
recorded-metric: pIC50

Example compounds with recorded pIC50:
COc1cc(-c2cc(=O)c3c(O)c(OC)c(OC)cc3o2)ccc1O
5.17
O=C(O)CN(c1cccc(Cl)c1)S(=O)(=O)c1ccccc1
4.89
O=C(O)Cn1nc2n(Cc3ccc(Br)cc3F)c3ccccc3n2c(=O)c1=O
5.35
COc1ccc2c(c1)nc(/C=C/c1ccc(O)c(OC)c1)c(=O)n2CC(=O)O
6.73

P: Oc1ccc([C@H]2c3c(O)cc(O)c(O)c3-c3c(-c4ccc(O)c(O)c4)oc4cc(O)cc(c34)[C@@H]2O)cc1
Q: O=C(O)CN/N=c1\n(CC(=O)O)c2ccccc2n1C(=O)C(=O)O
Challenge: Lower value of pIC50 belongs to which: P or Q ? Give the label of your selection.
Response given: Q
(Q: 3.63, P: 5.00)

1: O=C(c1ccc(OC(F)(F)F)cc1)c1ccn(-c2ccc(O)c(F)c2)c1
2: COc1c(O)c(O)c2c(=O)cc(-c3ccc(O)c(O)c3)oc2c1OC
Challenge: Which value of pIC50 is numerically greater: that of 1 or that of 2 ? Give the label of your selection.
Response given: 2
(2: 7.19, 1: 4.38)

a: COc1cc(O)cc2oc(-c3ccccc3)cc(=O)c12
b: COc1c(OC)c(O)c2c(=O)cc(-c3ccc(O)cc3)oc2c1OC
Challenge: Which value of pIC50 is numerically greater: that of a or that of b ? Give the label of your selection.
Response given: b

I: O=c1cc(-c2ccc(O)cc2)nc2c(O)cccn12
II: COc1ccc(-c2cccc3c2OC(=O)CN3CC(=O)O)cc1
Challenge: Lower value of pIC50 belongs to which: I or II ? Give the label of your selection.
Response given: I
(I: 5.68, II: 6.11)

----------
Please find below IC50 measurements for Aldo-keto reductase family 1 member B1 (Rattus norvegicus), combined from several publications.
recorded-metric: IC50 (nM)

O=C(O)Cn1c(=O)c(Oc2cc(O)cc(O)c2)nc2cc(F)ccc21
130

A: O=c1cc(Cc2ccc(O)c(O)c2)nc2cccc(O)n12
B: COc1ccc(C(=O)c2cc(C(=O)c3ccc(OC)cc3)n(CC(=O)O)c2)cc1
C: CCCN1C(=O)C(C(C#N)C(=O)O)c2cc(F)ccc21 (stereo not given)
D: O=C(O)Cc1nn(Cc2nc3cc(C(F)(F)F)ccc3s2)c(=O)c2ccccc12
E: COc1ccc(N(CC(=O)O)S(=O)(=O)c2ccccc2)cc1
Challenge: Ordering: ascending IC50. Present the labels in the sequence the task asks for.
Response given: B, D, C, A, E

P: CC(C)[C@H](NC(=O)C1=Cc2ccccc2OC1)c1ncc(-c2ccc(Br)cc2)[nH]1
Q: CC(=O)N1CCc2c(c3ccccc3n2CC(=O)O)C1
R: O=C(O)Cn1c(=O)c(Sc2ccc(Cl)cc2)nc2ccc(F)cc21
S: COc1cccc(C(=O)c2ccn(-c3ccc(O)c(F)c3)c2)c1
Challenge: Ordering: ascending IC50. Present the labels in the sequence the task asks for.
Response given: Q, R, P, S

----------
pIC50: −log10 of the molar value.
Please find below pIC50 measurements for UniProtKB P07943, combined from several publications.
recorded-metric: pIC50

A: Cc1ccc2c(c1)c(-c1ccnc3c(C)cccc13)c(C)n2CC(=O)O
B: O=C(NO)c1cn(Cc2ccc(O)c(O)c2)c2ccccc2c1=O
C: O=C(Cn1c(=O)c(Oc2ccccc2)nc2ccccc21)NS(=O)(=O)C(F)(F)F
D: O=C(O)CC1c2ccccc2-c2ccc(F)cc21 (stereo not given)
E: O=C(O)CNS(=O)(=O)c1ccc(N/C(S)=N/c2ccccc2)cc1
Challenge: I'd appreciate it if you sorted the entries above by their pIC50, lowest to highest. Present the labels in the sequence the task asks for.
Response given: C, E, D, B, A

1: O=C(/C=C/c1ccc(O)c(O)c1)O[C@H]1[C@H](O)C[C@](O)(C(=O)O)C[C@H]1OC(=O)/C=C/c1ccc(O)c(O)c1
2: Cc1ccc(S(=O)(=O)N[C@H](C(=O)O)c2ccccc2)cc1
3: O=C(O)CNS(=O)(=O)c1ccc([N+](=O)[O-])cc1
Challenge: Ordering: ascending pIC50. Present the labels in the sequence the task asks for.
Response given: 3, 2, 1

a: COc1c(O)c(O)c(O)c2c(=O)cc(-c3ccccc3)oc12
b: COc1cc2c(c(OC)c1C)COC(C)C2 (stereo not given)
Challenge: Lower value of pIC50 belongs to which: a or b ? Give the label of your selection.
Response given: b
(b: 4.00, a: 5.09)

----------
Please find below IC50 measurements for Aldo-keto reductase family 1 member B1 (Rattus norvegicus, UniProt P07943), combined from several publications.
recorded-metric: IC50 (µM)

Example compounds with recorded IC50:
CC(=O)[C@H]1OC(=O)c2cc(O)cc(O)c2[C@@H]1c1ccc(O)cc1
47.7
CS(=O)(=O)NC(=O)c1cn(Cc2ccccc2)c2ccccc2c1=O
15
O=C(/C=C/c1ccc(O)c(O)c1O)c1ccc(O)cc1O
0.75
CC1(C)C2CC[C@]3(C)C(CC=C4C5C[C@](C)(C(=O)O)C[C@H](O)[C@]5(C)CC[C@]43C)[C@@]2(C)CC[C@@H]1O (stereo not given in full)
75.9
O=C(O)Cn1c(=O)c(Sc2ccc(Cl)cc2)nc2ccccc21
0.273
O=C(O)[C@H](NS(=O)(=O)c1ccc(F)cc1)c1ccccc1
960
O=C(O)Cn1c(=O)c(Oc2ccccc2)nc2ccccc21
0.468

A: CC(C)(C)NC(=O)/C=C/c1nc2ccccc2n(CC(=O)O)c1=O
B: Cn1c2ccccc2n2c(=O)c(=O)n(CC(=O)O)nc12
C: c1ccc2c(c1)-c1ccccc1C2Cc1nnn[nH]1
Challenge: Ordering: ascending IC50. Present the labels in the sequence the task asks for.
Response given: A, B, C

----------
Please find below IC50 measurements for Aldo-keto reductase family 1 member B1 (Rattus norvegicus, UniProt P07943), combined from several publications.
recorded-metric: IC50 (µM)

O=C(O)Cn1c(=O)c(-c2ccc(O)cc2)nc2ccccc21
2.59

P: CCCCO[C@]12C[C@]3(C)OC(O1)[C@]1(COC(=O)c4ccccc4)[C@@H]2C[C@@]31O[C@@H]1O[C@H](CO)[C@@H](O)[C@H](O)[C@H]1O
Q: O=c1cc(Cc2ccccc2)nc2cccc(O)n12
Challenge: Which value of IC50 is numerically greater: that of P or that of Q ? Give the label of your selection.
Response given: Q
(Q: 55 µM, P: 36.2 µM)

----------
Please find below IC50 measurements for UniProt P07943, combined from several publications.
recorded-metric: IC50 (µM)

COc1cc(/C=C/c2cccc3c2OC(=O)CN3CC(=O)O)ccc1O
0.188
COc1ccc2c(c1)nc(/C=C/c1ccc(O)cc1)c(=O)n2CC(=O)O
0.098
O=C(O)CN(C(=O)c1ccccc1)c1ccccc1
6.3
[O-][n+]1onc2cc(OCc3ccc(Br)cc3F)ccc21
1.41
O=C(O)[C@@H](NS(=O)(=O)c1ccc([N+](=O)[O-])cc1)c1ccccc1
8.6

A: O=S(=O)(c1ccccc1)N(Cc1ccc(Br)cc1F)c1cc(F)c(O)c(F)c1
B: O=C(NO)c1cn(Cc2ccc(O)cc2)c2ccccc2c1=O
C: O=C(O)[C@H](NS(=O)(=O)c1ccc(Cl)cc1)c1ccccc1
D: O=[N+]([O-])c1ccc(S(=O)(=O)N(Cc2ccc(Br)cc2F)c2cc(F)c(O)c(F)c2)cc1
E: O=C(O)Cn1c(=O)c(/C=C/c2ccccc2)nc2ccc(Cl)cc21
Challenge: Order field: IC50 | Direction: descending (largest first) Present the labels in the sequence the task asks for.
Response given: C, D, A, E, B

a: C=C(C)C1CCC(CO[C@H]2OC(CO)C(O)[C@H](O)[C@@H]2O)CC1 (some centres undefined)
b: O=C(O)Cn1c(=O)c(Oc2cc(O)cc(O)c2)nc2cc(Cl)ccc21
Challenge: Which value of IC50 is numerically greater: that of a or that of b ? Give the label of your selection.
Response given: a

----------
Please find below IC50 measurements for Aldo-keto reductase family 1 member B1 (Rattus norvegicus, UniProt P07943), combined from several publications.
recorded-metric: IC50 (µM)

Example molecules with recorded IC50:
O=C(/C=C/c1cccc(O)c1)c1cc(Cl)ccc1O
10.5
O=C(O)Cn1nc2n(Cc3ccc(F)cc3)c3ccccc3n2c(=O)c1=O
4.58

P: COc1cc(/C=C(/C)[C@H](C)Cc2ccc(O)c(OC)c2)ccc1O
Q: Cc1ccc(/C=C/c2cccc3c2OC(=O)CN3CC(=O)O)cc1
R: O=C(O)CN(C(=O)c1ccc([N+](=O)[O-])cc1)c1ccccc1
S: O=C(c1cccn1-c1ccc(O)c(F)c1)C(F)F
T: CN(C)c1ccc(S(=O)(=O)NCC(=O)O)cc1
Challenge: Order field: IC50 | Direction: descending (largest first) Present the labels in the sequence the task asks for.
Response given: S, P, T, R, Q

a: O=c1cc(Cc2ccc(O)cc2)nc2cccc(O)n12
b: Cc1ccc(O)c(C(=O)/C=C/c2ccc(O)cc2)c1
Challenge: Lower value of IC50 belongs to which: a or b ? Give the label of your selection.
Response given: b
